system: Hs578T breast cancer cell line; experiment: Antiproliferative activity in Hs578T cells; assay type: cell-based; conditions: Homo sapiens, Hs-578T
assayReadout: IC50 (nM)
Dear colleague, please return just the value in nM, with no unit written.

Enquiry: Requested field: IC50. Item: C=CC1C(=O)N(c2cc(OC)c(OC)c(OC)c2)C1c1ccc(OC)cc1 (stereo not shown) [Compound 7h]
Return: 31

* * *

system: human MCF-7 breast cancer cells; test: Cell viability (Alamar Blue) antiproliferative assay in MCF-7 cells; format: cell-based; details: Homo sapiens, MCF7, 72 h, human MCF-7 breast cancer cells; 72 h; mean ± SEM; read-out: Antiproliferative Activity IC50
Quick reference: IC50 of the listed items.
Dear colleague, please return just the value in µM, with no unit written.

molecule	assayReadout	assayValue
COc1ccc(C2CC(=O)N2c2cc(OC)c(OC)c(OC)c2)cc1O (stereo not shown)	IC50	0.017

Enquiry: Requested field: IC50. Item: C=CC1C(=O)N(c2cc(OC)c(OC)c(OC)c2)C1c1ccc(OCCCC)cc1 (stereo not shown)
Return: 14

Enquiry: Requested field: IC50. Item: C=CC1C(=O)N(c2ccc(C(C)(C)C)cc2)C1c1cc(OC)c(OC)c(OC)c1 (stereo not shown)
Return: 68.8

Enquiry: Requested field: IC50. Item: C=CC1C(=O)N(c2cc(OC)c(OC)c(OC)c2)C1c1cccc2ccccc12 (stereo not shown)
Return: 1.74

* * *

Quick reference: vmax of tubulin polymerization of the listed items.
biological target: purified bovine tubulin (Bos taurus, UniProt P81947+Q6B856); construct: Purified (>99%) bovine brain tubulin (3 mg/mL); purchased Cytoskeleton Inc. BK006; host or cells: bovine brain (tissue-purified); assay: Tubulin polymerization assay; assay type: biochemical; conditions: 10 μM; absorbance at 340 nm, 37 °C
Sequence (Q6B856 whole entry): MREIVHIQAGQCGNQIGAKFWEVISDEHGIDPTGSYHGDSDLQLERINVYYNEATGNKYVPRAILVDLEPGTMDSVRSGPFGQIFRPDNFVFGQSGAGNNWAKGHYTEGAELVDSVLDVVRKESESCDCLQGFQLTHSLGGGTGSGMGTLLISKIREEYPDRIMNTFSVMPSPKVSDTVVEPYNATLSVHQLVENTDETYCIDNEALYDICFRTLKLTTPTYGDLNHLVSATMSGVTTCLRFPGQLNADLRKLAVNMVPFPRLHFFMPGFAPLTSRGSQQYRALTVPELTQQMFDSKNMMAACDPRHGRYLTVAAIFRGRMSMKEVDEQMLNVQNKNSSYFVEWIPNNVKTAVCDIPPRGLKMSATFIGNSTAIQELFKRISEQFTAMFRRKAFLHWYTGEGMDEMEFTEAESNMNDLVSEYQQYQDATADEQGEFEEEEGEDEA
Sequence (P81947 whole entry): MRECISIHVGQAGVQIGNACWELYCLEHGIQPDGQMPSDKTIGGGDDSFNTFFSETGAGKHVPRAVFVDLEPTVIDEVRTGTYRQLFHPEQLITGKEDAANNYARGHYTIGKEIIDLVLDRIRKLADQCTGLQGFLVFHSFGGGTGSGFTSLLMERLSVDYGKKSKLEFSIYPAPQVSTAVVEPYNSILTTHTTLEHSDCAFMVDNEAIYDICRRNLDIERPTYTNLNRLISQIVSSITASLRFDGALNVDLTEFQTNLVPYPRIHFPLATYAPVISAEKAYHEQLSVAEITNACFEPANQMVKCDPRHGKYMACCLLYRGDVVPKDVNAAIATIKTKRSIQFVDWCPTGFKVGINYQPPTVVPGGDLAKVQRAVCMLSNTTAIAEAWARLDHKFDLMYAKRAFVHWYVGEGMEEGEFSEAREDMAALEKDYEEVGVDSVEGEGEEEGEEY
Dear colleague, please return just the value in mOD/min, with no unit written.

A selection of reference data follows.
compound	testedTarget	vmax of tubulin polymerization [mOD/min]
CC(=O)O[C@H]1C(=O)[C@@]2(C)[C@H]([C@H](OC(=O)c3ccccc3)[C@]3(O)C[C@H](OC(=O)[C@H](O)[C@@H](NC(=O)c4ccccc4)c4ccccc4)C(C)=C1C3(C)C)[C@]1(OC(C)=O)CO[C@@H]1C[C@@H]2O [paclitaxel, reference compound]	purified bovine tubulin (Bos taurus, UniProt P81947+Q6B856)	89.4
C=CC1C(=O)N(c2cc(OC)c(OC)c(OC)c2)C1c1ccc(OC)c(N)c1 (stereo not shown)	purified bovine tubulin (Bos taurus, UniProt P81947+Q6B856)	0.92
C=CC1C(=O)N(c2cc(OC)c(OC)c(OC)c2)C1c1ccc(OC)cc1 (stereo not shown)	purified bovine tubulin (Bos taurus, UniProt P81947+Q6B856)	3.43

Enquiry: Requested field: vmax of tubulin polymerization. Item: C=CC1C(=O)N(c2cc(OC)c(OC)c(OC)c2)C1c1ccc(OCC)cc1 (stereo not shown)
Return: 3.84

* * *

Quick reference: pIC50 of the listed items.
test system: human MCF-7 breast cancer cells; assay: Cell viability (Alamar Blue) antiproliferative assay in MCF-7 cells; format: cell-based; settings: MCF7; human MCF-7 breast cancer cells; 72 h; mean ± SEM; read-out: Antiproliferative Activity IC50
Just so you know, pIC50 here is -log10 of the concentration in molar units; reply with that number alone.

compound	assayValue
C=CC1C(=O)N(c2cc(OC)c(OC)c(OC)c2)C1c1ccc(OC)c(N)c1 (centres unmarked) [Compound 7t]	7.77

As a next step, examine the compound that follows.
Enquiry: Requested field: pIC50. Item: C=CC1C(=O)N(c2cc(OC)c(OC)c(OC)c2)C1c1ccc(OC)cc1 (centres unmarked) [Compound 7h]
Return: 7.70
